- Tested on: CCRF-CEM
- Assay Overview: Cytotoxicity against human CCRF-CEM cells assessed as cellular growth at 10 uM by SRB assay
- Type: functional
Attribute Measured: Activity (%)
Numeric answer only, unit % assumed.

Task: Entry `Cc1ccccc1NC(=O)c1sc2nc3c(cc2c1N)C(=O)CCC3` : reported Activity = ?
Output: 30.28

Task: Entry `Cc1cccc(-c2nc(-c3cccs3)no2)c1` : reported Activity = ?
Output: 91.12

Task: Entry `Clc1ccccc1Nc1nnc(-c2ccncc2)s1` : reported Activity = ?
Output: 95.96

Task: Entry `COc1ccc(Cl)cc1C(=O)Nc1nc2ccc(Cl)cc2s1` : reported Activity = ?
Output: 86.4

Task: Entry `Cc1c(OCC(=O)c2ccccc2)ccc2c1oc(=O)c1ccccc12` : reported Activity = ?
Output: 95.27

Task: Entry `O=C1N=C(c2ccccc2)S/C1=C\c1ccc2c(c1)OCO2` : reported Activity = ?
Output: 90.34

Task: Entry `Cc1ccc(CNC(=O)c2[nH]c3ccccc3c2Cl)cc1` : reported Activity = ?
Output: 99.93

Task: Entry `O=C(NCc1ccc(Cl)cc1)c1[nH]c2ccccc2c1Cl` : reported Activity = ?
Output: 93.68

----------
Listing of entries alongside the reported Activity.
- Test system: UACC-62
- Assay Overview: Cytotoxicity against human UACC62 cells assessed as cellular growth at 10 uM by SRB assay
- Assay type: functional
Numeric answer only, unit % assumed.

Examples from the recorded data:
Task: Entry `CC1(C)CC(=O)c2cc3c(N)c(C(=O)NCc4ccccc4)sc3nc2C1` : reported Activity = ?
Output: 102.76

Task: Entry `COc1ccc2[nH]c(C(=O)NCc3ccccc3)cc2c1` : reported Activity = ?
Output: 91.05

Task: Entry `CC1(C)CCc2cc(-c3ccn(S(=O)(=O)c4ccccc4Cl)n3)ccc2O1` : reported Activity = ?
Output: 81.14

Task: Entry `O=C(NCc1cccnc1)c1sc2cc([N+](=O)[O-])ccc2c1Cl` : reported Activity = ?
Output: 89.48

Others:
Task: Entry `N#Cc1ccc(-n2nnc3ccccc32)cc1C#N` : reported Activity = ?
Output: 94.5

Task: Entry `Nc1c(C(=O)Nc2ccc(Cl)c(Cl)c2)sc2nc(-c3cccs3)ccc12` : reported Activity = ?
Output: 79.48

Task: Entry `COc1ccc(Cl)cc1C(=O)Nc1nc2ccc(Cl)cc2s1` : reported Activity = ?
Output: 91.53

Task: Entry `CC1(C)CCc2cc(-c3ccn(S(=O)(=O)c4cccc(C(F)(F)F)c4)n3)ccc2O1` : reported Activity = ?
Output: 84.21

Task: Entry `CC1(C)CCc2cc(-c3ccn(S(=O)(=O)c4ccc(Cl)cc4)n3)ccc2O1` : reported Activity = ?
Output: 75.03

Task: Entry `O=S(=O)(Oc1ccc(-c2cnc3ccccc3n2)cc1)c1ccc2ccccc2c1` : reported Activity = ?
Output: 82.67

Task: Entry `O=C(Nc1ccc(S(=O)(=O)Nc2nccs2)cc1)c1cccs1` : reported Activity = ?
Output: 104.61

Task: Entry `Cc1ccc2c(c1)N/C(=C/C(=O)c1ccc(Cl)cc1)C(=O)O2` : reported Activity = ?
Output: 93.82

Task: Entry `CC1(C)CC(=O)c2cc3c(N)c(C(=O)Nc4ccccc4Cl)sc3nc2C1` : reported Activity = ?
Output: 100.17

Task: Entry `O=S(=O)(Oc1ccc(-c2cnc3ccccc3n2)cc1)c1ccccc1` : reported Activity = ?
Output: 78.48

----------
Listing of entries alongside the reported Activity.
- System: HCT-116
- Assay Overview: Cytotoxicity against human HCT116 cells assessed as cellular growth at 10 uM by SRB assay
- Assay type: functional
Numeric answer only, unit % assumed.

Task: Entry `Nc1c(C(=O)Nc2ccccc2F)sc2nc3c(cc12)C(=O)CCC3` : reported Activity = ?
Output: 32.04

Task: Entry `Cc1ccc(Cl)cc1NC(=O)c1sc2nc3c(cc2c1N)C(=O)CCC3` : reported Activity = ?
Output: 67.98

Task: Entry `Cc1ccc2c(c1)N/C(=C/C(=O)c1ccc(Cl)cc1)C(=O)O2` : reported Activity = ?
Output: 105.71

Task: Entry `O=C1N=C(c2ccccc2)S/C1=C\c1ccc2c(c1)OCO2` : reported Activity = ?
Output: 104.4

Others:
Task: Entry `Cc1ccc(C(=O)/C=C2/Nc3ccc(C)cc3OC2=O)cc1` : reported Activity = ?
Output: 110.04

Task: Entry `Cc1ccc(NC(=O)c2sc3nc(-c4cccs4)ccc3c2N)cc1C` : reported Activity = ?
Output: 106.03

----------
Listing of entries alongside the reported Activity.
- Tested on: HT-29
- Assay Overview: Cytotoxicity against human HT-29 cells assessed as cellular growth at 10 uM by SRB assay
- Assay type: functional
Numeric answer only, unit % assumed.

Examples from the recorded data:
Task: Entry `O=C(NCCc1ccc(Cl)cc1)c1[nH]c2ccccc2c1Cl` : reported Activity = ?
Output: 100.35

Task: Entry `Cc1ccc(S(=O)(=O)NC2=NC(=O)/C(=C\c3ccccc3)S2)cc1` : reported Activity = ?
Output: 109.22

Task: Entry `O=C(NCc1cccnc1)c1sc2cc([N+](=O)[O-])ccc2c1Cl` : reported Activity = ?
Output: 106.56

Task: Entry `Cc1ccc(NC(=O)c2sc3nc4c(cc3c2N)C(=O)CCC4)cc1Cl` : reported Activity = ?
Output: 97.53

Task: Entry `Cc1ccc(C2=N/C(=C\c3ccccc3)C(=O)O2)cc1` : reported Activity = ?
Output: 107.8

Others:
Task: Entry `COc1cc(/C=c2/sc3nc4ccccc4n3c2=O)cc(I)c1O` : reported Activity = ?
Output: 104.58

Task: Entry `Cc1ccc(NC(=O)c2sc3nc(-c4cccs4)ccc3c2N)cc1C` : reported Activity = ?
Output: 94.6

Task: Entry `Clc1ccc(-c2nc(-c3cccs3)no2)cc1` : reported Activity = ?
Output: 106.39

Task: Entry `CC1(C)CC(=O)c2cc3c(N)c(C(=O)Nc4ccc(Cl)cc4)sc3nc2C1` : reported Activity = ?
Output: 96.43

Task: Entry `O=S(=O)(Oc1ccc(-c2cnc3ccccc3n2)cc1)c1ccc2ccccc2c1` : reported Activity = ?
Output: 82.27

Task: Entry `Nc1c(C(=O)Nc2cccc(Cl)c2)sc2nc3c(cc12)C(=O)CCC3` : reported Activity = ?
Output: 23.87

Task: Entry `CC1(C)CCc2cc(-c3ccn(S(=O)(=O)c4ccccc4Cl)n3)ccc2O1` : reported Activity = ?
Output: 33.37

Task: Entry `O=C(Nc1nc2ccc(Cl)cc2s1)c1ccc(Cl)cc1` : reported Activity = ?
Output: 107.3

----------
- Tested on: T47D
- Assay Overview: Cytotoxicity against human T47D cells assessed as cellular growth at 10 uM by SRB assay
- Format: functional
Attribute Measured: Activity
Field note: include the unit after the figure.

Task: Entry `O=c1/c(=C/c2ccccc2Cl)sc2nc(-c3ccccc3)nn12` : reported Activity = ?
Output: 90.39%

Task: Entry `COc1cc(/C=c2/sc3nc4ccccc4n3c2=O)cc(I)c1O` : reported Activity = ?
Output: 82.96%

Task: Entry `Clc1ccc(-c2nc(-c3cccs3)no2)cc1` : reported Activity = ?
Output: 66.67%

Task: Entry `O=C(Nc1ccc(S(=O)(=O)Nc2nccs2)cc1)c1cccs1` : reported Activity = ?
Output: 105.19%

Others:
Task: Entry `Nc1c(C(=O)Nc2ccc(Cl)c(Cl)c2)sc2nc(-c3cccs3)ccc12` : reported Activity = ?
Output: 85.21%

Task: Entry `COc1ccc2[nH]c(C(=O)NCc3ccccc3)cc2c1` : reported Activity = ?
Output: 85.87%

Task: Entry `COc1ccc(S(=O)(=O)n2ccc(-c3ccc4c(c3)CCC(C)(C)O4)n2)cc1` : reported Activity = ?
Output: 46.7%

Task: Entry `O=C(Nc1nc2ccccc2s1)c1ccc(F)cc1` : reported Activity = ?
Output: 55.31%

Task: Entry `O=C(NCCc1ccccc1)c1[nH]c2ccccc2c1Cl` : reported Activity = ?
Output: 71.67%

Task: Entry `O=S(=O)(Oc1ccc(-c2cnc3ccccc3n2)cc1)c1ccc2ccccc2c1` : reported Activity = ?
Output: 91.09%

Task: Entry `O=C(Nc1nc2ccc(Cl)cc2s1)c1ccc(Cl)cc1` : reported Activity = ?
Output: 93.28%

Task: Entry `Cc1cc(C)c(NC(=O)c2sc3nc4c(cc3c2N)C(=O)CC(C)(C)C4)c(C)c1` : reported Activity = ?
Output: 88.69%

Task: Entry `O=C(NCCc1ccc(Cl)cc1)c1[nH]c2ccccc2c1Cl` : reported Activity = ?
Output: 81.02%

Task: Entry `O=c1/c(=C/c2ccccc2)sc2nc(-c3ccc(Cl)cc3Cl)nn12` : reported Activity = ?
Output: 94.32%

----------
- Tested on: NCI-H460
- Assay Overview: Cytotoxicity against human NCI-H460 cells assessed as cellular growth at 10 uM by SRB assay
- Assay type: functional
Kind request: treat 30% as inclusive, so Activity at 30% or higher is criterion met, anything lower is criterion not met.

Look over these answered cases.
Task: Decide: is the reported value of Activity for `O=C(NCc1cccnc1)c1sc2cc([N+](=O)[O-])ccc2c1Cl` equal to or greater than 30%?
Output: criterion met

Task: Decide: is the reported value of Activity for `Cc1ccc(Cl)cc1NC(=O)c1sc2nc3c(cc2c1N)C(=O)CCC3` equal to or greater than 30%?
Output: criterion not met

Task: Decide: is the reported value of Activity for `COc1ccc(NC(=O)c2sc3nc4c(cc3c2N)C(=O)CCC4)cc1` equal to or greater than 30%?
Output: criterion met

Task: Decide: is the reported value of Activity for `Cc1ccc(NC(=O)c2sc3nc4c(cc3c2N)C(=O)CCC4)cc1Cl` equal to or greater than 30%?
Output: criterion met

Task: Decide: is the reported value of Activity for `O=C(NCCc1ccccc1)c1[nH]c2ccccc2c1Cl` equal to or greater than 30%?
Output: criterion met

Others:
Task: Decide: is the reported value of Activity for `Nc1c(C(=O)Nc2ccccc2F)sc2nc3c(cc12)C(=O)CCC3` equal to or greater than 30%?
Output: criterion not met
